- Test system: wheat germ agglutinin (Triticum aestivum), Alexa647-labelled
- protocol description: wheat germ agglutinin binders on compound microarrays, profiling panel, artefact control for SMM control-protein annotation, biochemical, small-molecule microarray, 635/667 nm fluorescence (AID 1140);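 also: score merges 667 nm feature emission with signal to noise over triplicate slides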
- condition set: WGA-A647 binding, 635 nm fluorescence, higher = more signal
Kindly state composite z-score for each of the entries shown.
Answer with a bare number; do not write a unit.

Data request, read-out composite z-score, for C=C(C(=O)CC[C@@H](OC(C)=O)c1ccccc1OCCO)C(C)C
-0.242

Data request, read-out composite z-score, for CC(C)(C)OC(=O)CC[C@@]1(C(=O)NCc2ccccc2)N=C(c2ccc(OCCCO)cc2)O[C@@H]1c1ccccc1CN=[N+]=[N-]
1.27

Data request, read-out composite z-score, for CO[C@H]1O[C@H](CO)[C@@H](OC(=O)Nc2ccccc2)[C@H](OC(=O)Nc2ccccc2-c2ccccc2)[C@@H]1OC(=O)Nc1ccccc1-c1ccccc1
1.26

Data request, read-out composite z-score, for C=C(C(=O)CC[C@H](OC(C)=O)c1ccc(CO)o1)C(C)C
-0.432

Data request, read-out composite z-score, for CCOC(=O)C[C@H]1[C@H](OC(=O)c2cc3ccccc3oc2=O)[C@@H](NC(=O)c2ccccc2)c2cc(OCCCO)ccc2N1C(=O)Cc1ccc(OC)cc1
0.247

Data request, read-out composite z-score, for O=C(O)[C@H]1C[C@H]2C(=O)N[C@@H](Cc3ccccc3)C(=O)N2[C@H]1c1ccc(O)cc1
0.302

Data request, read-out composite z-score, for COCCOC(=O)N1C(=O)[C@@]2(c3cc(C#CC4(O)CCCCCC4)ccc31)[C@H](c1ccc(O)cc1)N1[C@H](c3ccccc3)[C@H](c3ccccc3)OC(=O)[C@H]1[C@@H]2C(N)=O
0.706
